These data points were gathered from the supplement of paper PMC12340641.

Listed here: items and their measured relative growth in counter assay.
# Tested on: HEK293FT dCK*-only
# TEST_METHOD_NOTES: relative growth in counter assay (no AraC = 100%, AraC + DMSO = 0%); higher = more growth rescue independent of IKZF1
# CONDITION_SUMMARY: compound concentration: 5 uM; AraC concentration: 0.3 uM; overnight pretreatment + 4 days AraC
Numbers only here, please. The scale is %.

These solved cases illustrate the format of a correct answer.
# COMPOUND, TEST_VALUE
data = [
    ("Oc1ccc(/C=C/c2cc(O)cc(O)c2)cc1", 5.43),
    ("CCCCC1OC(=O)c2ccccc21 (stereo not drawn) [Butylphthalide]", 1.67),
]

Now look at this one.
State the recorded relative growth in counter assay for this entry: Oc1cc(O)cc(/C=C/c2ccc(O)c(O)c2)c1
-9.71

###

# Test system: HEK293FT dCK*-only
# TEST_METHOD_NOTES: relative growth in counter assay (no AraC = 100%, AraC + DMSO = 0%); higher = more growth rescue independent of IKZF1
# CONDITION_SUMMARY: compound concentration: 5 uM; AraC concentration: 0.3 uM; overnight pretreatment + 4 days AraC
Reported relative growth in counter assay by item:

# COMPOUND, relative growth in counter assay
data = [
    ("CC[C@]1(O)C[C@H]2C[N@@](CCc3c([nH]c4ccccc34)[C@@](C(=O)OC)(c3cc4c(cc3OC)N(C=O)[C@H]3[C@@](O)(C(=O)OC)[C@H](OC(C)=O)[C@]5(CC)C=CCN6CC[C@]43[C@@H]65)C2)C1 [Vincristine (sulfate)]", "-34.5%"),
    ("O=C(Nc1cc(C(F)(F)F)ccc1O)Nc1cc(C(F)(F)F)ccc1O", "-5.68%"),
    ("CCCCC(=O)OCC(=O)[C@]1(O)Cc2c(O)c3c(c(O)c2[C@@H](O[C@H]2C[C@H](NC(=O)C(F)(F)F)[C@H](O)[C@H](C)O2)C1)C(=O)c1c(OC)cccc1C3=O [Valrubicin]", "-34.4%"),
    ("CC(=O)Oc1ccccc1C(=O)Nc1ncc([N+](=O)[O-])s1", "-5.9%"),
]

Requested read-out: relative growth in counter assay. Entry: N#Cc1ccc(O[C@H]2CC[C@H](NC(=O)c3ccc(N4CCC(CN5CCN(c6cc7c(cc6F)C(=O)N(C6CCC(=O)NC6=O)C7=O)CC5)CC4)nn3)CC2)cc1Cl (some centres not stated)
6.3%

Looking for the measured relative growth in counter assay of COc1cc([C@@H]2c3cc4c(cc3[C@@H](O[C@@H]3O[C@@H]5CO[C@@H](C)O[C@H]5[C@H](O)[C@H]3O)[C@H]3COC(=O)[C@H]23)OCO4)cc(OC)c1OP(=O)(O)O [Etoposide phosphate] , can you help?
-33.9%

What measured relative growth in counter assay goes with CCN(CCCCCOCC(=O)N[C@H](C(=O)N1C[C@H](O)C[C@H]1C(=O)N[C@@H](C)c1ccc(-c2scnc2C)cc1)C(C)(C)C)CCOc1ccc(C(=O)c2c(-c3ccc(O)cc3)sc3cc(O)ccc23)cc1 ?
13.8%

I'd like to know its relative growth in counter assay. The compound in question is COc1nccnc1NS(=O)(=O)c1ccc(N)cc1 [sulfametopyrazine]
-7.5%
